Each recorded value in this set is attributed to patent US20140051120A1.

The following binders are shown together with reported pKd values.
Target: T1, p5 peptide of EGFL7 (human)
T1 construct: also called Peptide P5
T1 peptide: RACSTYRTIYRTA
Assay: SPR (Biacore), IgG over immobilized P5 peptide at 37 C, n = 2
pKd: −log10 of the molar value.
READOUT NAME: pKd

| BINDER | READOUT NAME | EXPERIMENTAL RESULT |
| --- | --- | --- |
| 18F7.v6B IgG (antibody, V domains shown, IgG; Variant of 18F7.v6) VH: EVQLVESGGGLVQPGGSLRLSCAASGYTFIDYYMNWVRQAPGKGLEWVGDINLDSGGTHYNQKFKGRFTISRDKSKNTAYLQMNSLRAEDTAVYYCAREGVYHDYDDYAMDYWGQGTLVTVSS VL: DIQMTQSPSSLSASVGDRVTITCRTSQSLVHINGITYLHWYQQKPGKAPKLLIYRVSNRFSGVPSRFSGSGSGTDFTLTISSLQPEDFATYYCGQSTHVPLTFGQGTKVEIK | pKd | 8.49 |
| 18F7.v6C IgG (antibody, V domains shown, IgG; Variant of 18F7.v6) VH: EVQLVESGGGLVQPGGSLRLSCAASGYTFIDYYMNWVRQAPGKGLEWVGDINLDNSGTHYNQKFKGRFTISRDKSKNTAYLQMNSLRAEDTAVYYCAREGVYHDYDDYAMDYWGQGTLVTVSS VL: DIQMTQSPSSLSASVGDRVTITCRTSQSLVHINGITYLHWYQQKPGKAPKLLIYRVSNRFSGVPSRFSGSGSGTDFTLTISSLQPEDFATYYCGQSTHVPLTFGQGTKVEIK | pKd | 8.38 |
| 18F7.v6D IgG (antibody, V domains shown, IgG; Variant of 18F7.v6) VH: EVQLVESGGGLVQPGGSLRLSCAASGYTFIDYYMNWVRQAPGKGLEWVGDINLDSGGTHYNQKFKGRFTISRDKSKNTAYLQMNSLRAEDTAVYYCAREGVYHDYDDYAMDYWGQGTLVTVSS VL: DIQMTQSPSSLSASVGDRVTITCRTSQSLVHISGITYLHWYQQKPGKAPKLLIYRVSNRFSGVPSRFSGSGSGTDFTLTISSLQPEDFATYYCGQSTHVPLTFGQGTKVEIK | pKd | 8.01 |
